biological target: cIAP1 (Homo sapiens, UniProt Q13490); assay: Immunoblotting (western blot) quantification of cIAP1 levels in MM.1S cells; details: MM1.S, 16 h, read-out: %remaining protein cIAP1, MM.1S cells, 16 h treatment at 0.1 μM, normalized to loading control and DMSO
Sequence (Q13490 whole entry): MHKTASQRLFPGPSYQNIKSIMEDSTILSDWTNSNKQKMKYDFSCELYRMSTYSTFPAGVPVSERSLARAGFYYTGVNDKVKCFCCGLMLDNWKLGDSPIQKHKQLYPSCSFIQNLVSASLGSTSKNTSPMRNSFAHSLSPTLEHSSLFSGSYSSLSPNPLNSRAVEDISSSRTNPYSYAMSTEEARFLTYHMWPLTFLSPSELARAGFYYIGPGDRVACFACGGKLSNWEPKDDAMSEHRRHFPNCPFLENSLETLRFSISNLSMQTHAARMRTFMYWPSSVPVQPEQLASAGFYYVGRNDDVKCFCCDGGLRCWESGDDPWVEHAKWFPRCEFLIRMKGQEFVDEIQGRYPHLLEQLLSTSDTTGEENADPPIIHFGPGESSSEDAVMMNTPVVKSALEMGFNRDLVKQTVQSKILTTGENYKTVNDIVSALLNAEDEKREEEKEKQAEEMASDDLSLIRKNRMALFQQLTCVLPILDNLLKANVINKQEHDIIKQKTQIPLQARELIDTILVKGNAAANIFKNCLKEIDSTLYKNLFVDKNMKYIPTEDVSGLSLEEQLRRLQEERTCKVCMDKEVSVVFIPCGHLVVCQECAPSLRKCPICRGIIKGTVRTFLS
Mark fulfilled only for remaining activity at 0.1 µM values smaller than 4%; exact matches and larger values are not fulfilled.

{"columns": ["compound", "class name"],
 "data": [
  ["CN[C@H](C)C(=O)N[C@H](C(=O)N1C[C@@H](Oc2cccc(OCCCCC(=O)N[C@H](C(=O)N3C[C@H](O)C[C@H]3C(=O)N[C@@H](C)c3ccc(-c4scnc4C)cc3)C(C)(C)C)c2)C[C@H]1C(=O)N[C@@H]1CCCc2ccccc21)C1CCCCC1 [PROTAC 10a]", "not fulfilled"],
  ["Cc1ncsc1-c1ccc([C@H](C)NC(=O)[C@@H]2C[C@@H](O)CN2C(=O)[C@@H](NC(=O)CCCCOc2cccc(O[C@H]3C[C@@H](C(=O)N[C@@H]4CCCc5ccccc54)N(C(=O)[C@@H](NC(=O)[C@H](C)N(C)C)C4CCCCC4)C3)c2)C(C)(C)C)cc1 [PROTAC 10b]", "fulfilled"],
  ["Cc1ncsc1-c1ccc([C@H](C)NC(=O)[C@@H]2C[C@@H](O)CN2C(=O)[C@@H](NC(=O)CCCCOc2cccc(O[C@H]3C[C@@H](C(=O)N[C@@H]4CCCc5ccccc54)N(C(=O)[C@@H](NC(=O)[C@H](C)N(C)C(=O)OC(C)(C)C)C4CCCCC4)C3)c2)C(C)(C)C)cc1 [PROTAC 10d]", "not fulfilled"],
  ["CN[C@@H](C)C(=O)N[C@H](C(=O)N1C[C@@H](Oc2cccc(OCCCCOCCCCNc3cccc4c3C(=O)N(C3CCC(=O)NC3=O)C4=O)c2)C[C@H]1C(=O)N[C@@H]1CCCc2ccccc21)C1CCCCC1 (some centres unmarked) [PROTAC 22]", "fulfilled"]
]}

We next turn to a different compound, shown below.
Please indicate whether the reported remaining activity at 0.1 µM of CN[C@@H](C)C(=O)N[C@H](C(=O)N1C[C@@H](Oc2ccccc2)C[C@H]1C(=O)N[C@@H]1CCCc2ccccc21)C1CCCCC1 [CST530, reference compound] is strictly below 4%.
not fulfilled

----------
target: cIAP1 (Homo sapiens, UniProt Q13490); assay: Immunoblotting (western blot) quantification of cIAP1 levels in MM.1S cells; conditions: MM1.S, 16 h, read-out: %remaining protein cIAP1
metric: remaining activity at 0.1 µM
Report field: quantity (unit follows the number).

Required: remaining activity at 0.1 µM, one value per compound below.
1. CN[C@@H](C)C(=O)N[C@H](C(=O)N1C[C@@H](Oc2cccc(OCCCCCOCCCCCOCCCCCCNc3cccc4c3C(=O)N(C3CCC(=O)NC3=O)C4=O)c2)C[C@H]1C(=O)N[C@@H]1CCCc2ccccc21)C1CCCCC1 (stereo partly shown)
2. CN[C@@H](C)C(=O)N[C@H](C(=O)N1C[C@@H](Oc2cccc(OCCCCCCOCCCCCOCCCCC(=O)N[C@H](C(=O)N3C[C@H](O)C[C@H]3C(=O)NCc3ccc(-c4scnc4C)cc3)C(C)(C)C)c2)C[C@H]1C(=O)N[C@@H]1CCCc2ccccc21)C1CCCCC1
3. CN[C@@H](C)C(=O)N[C@H](C(=O)N1C[C@@H](Oc2cccc(OCCCCCOc3cc(-c4scnc4C)ccc3CNC(=O)[C@@H]3C[C@@H](O)CN3C(=O)[C@H](C(C)C)N3Cc4ccccc4C3=O)c2)C[C@H]1C(=O)N[C@@H]1CCCc2ccccc21)C1CCCCC1

10%
2%
4%

Sample CN[C@@H](C)C(=O)N[C@H](C(=O)N1C[C@@H](Oc2cccc(OCCCCOCCCCOc3cc(-c4scnc4C)ccc3CNC(=O)[C@@H]3C[C@@H](O)CN3C(=O)[C@H](C(C)C)N3Cc4ccccc4C3=O)c2)C[C@H]1C(=O)N[C@@H]1CCCc2ccccc21)C1CCCCC1 , system: cIAP1 (Homo sapiens, UniProt Q13490). Its remaining activity at 0.1 µM is 2%
